protocol_notes: Growth inhibition of human A172 cells after 6 days
Format: functional, cell-based
measurement_setup: a 172
The threshold is inclusive: relative cell growth of exactly 1 counts as satisfied; values below receive not satisfied.

# compound, category
data = [
    ("COC[C@]12CC[C@H](O)[C@]34C(NC1)[C@@](O)([C@@H](OC)[C@H]23)[C@@]1(O)C[C@H](OC)[C@H]2C[C@@H]4[C@@H]1[C@H]2O", "not satisfied"),
]

Does relative cell growth meet or surpass 1 for CCN1C[C@]2(COC)CC[C@H](OC)[C@]34C1C([C@H](OC)[C@H]23)[C@]1(OC(C)=O)[C@H]2[C@@H](OC(=O)c3ccc(OC)cc3)[C@](O)(C[C@H]24)[C@@H](OC)[C@@H]1O [DEOXYJESACONITINE] ?
not satisfied

Does relative cell growth meet or surpass 1 for COC[C@]12CN(C)C3C4[C@H](OC)[C@H]1[C@@]3([C@@H](OC)C[C@H]2O)[C@@H]1C[C@@]2(O)[C@H](OC(=O)c3ccccc3)[C@@H]1[C@]4(OC)[C@@H](O)[C@@H]2OC [HOKBUSINE A] ?
satisfied

Does relative cell growth meet or surpass 1 for "COC[C@]12CC[C@H](O)[C@]34C(NC1)[C@@](O)([C@@H](OC)[C@H]23)[C@@]1(O)C[C@H](OC)[C@H]2C[C@@H]4[C@@H]1[C@H]2OC" ?
not satisfied

Does relative cell growth meet or surpass 1 for "C=C1[C@H]2C[C@H]3C4N5C[C@]6(C)CCC[C@]47[C@H]([C@H]2O)C3(C[C@]5(OC(=O)/C=C/c2ccccc2)[C@H]67)[C@@H]1O" ?
not satisfied

Does relative cell growth meet or surpass 1 for CCN1C[C@]2(C)CC[C@H](OC)[C@@]34C1[C@@]1(OCO[C@@]15C[C@H](OC)[C@H]1C[C@@H]3[C@@H]5[C@H]1O)[C@@H](O)[C@H]24 [DELPHELINE] ?
satisfied

Does relative cell growth meet or surpass 1 for C=C1[C@H]2C[C@H]3C4N5C[C@]6(C)CCC[C@]47[C@H]([C@H]2O)C3(C[C@]5(O)[C@H]67)[C@@H]1O [PSEUDOKOBUSINE] ?
not satisfied

Does relative cell growth meet or surpass 1 for "C=C1[C@@H](O)[C@]23C[C@@H]1[C@@H](OC(C)=O)C[C@H]2[C@@]12C4C3C[C@@H]1[C@@](C)(CC[C@H]2O)CN4CC" ?
not satisfied

----------
Listing: relative cell growth of selected compounds
protocol_notes: Growth inhibition of human A172 cells after 6 days
Type: functional, cell-based
measurement_setup: a 172
The reply should be a number, written without any unit.

Consider the following illustrative entries.
# compound, relative cell growth
data = [
    ("CC(=O)O[C@H]1C[C@H]2C3C4C[C@@H]5[C@@]6(C)CC[C@H](OC(C)=O)[C@@]5(C4N(C)C6)[C@@H]3[C@H]1[C@@]1(CO1)[C@H]2O (stereo not given in full)", 1.01),
    ("C=C1[C@H]2C[C@H]3C4N(Cc5ccccc5)C[C@]5(C)CCC[C@]46[C@H]([C@H]2O)C3(CC(=O)[C@H]56)[C@@H]1O (stereo not given in full)", 1.01),
    ("CCN1C[C@]2(COC)CC[C@H](OC)[C@]34C1C([C@H](OC)[C@H]23)[C@]1(OC(C)=O)[C@H]2[C@@H](OC(=O)c3ccccc3)[C@](O)(C[C@H]24)[C@@H](OC)[C@@H]1O", 0.99),
    ("C=C1[C@H]2C[C@H]3C4N5C[C@]6(C)CCC[C@]47[C@H]([C@H]2O)C3(C[C@]5(OC(=O)c2ccc(OC)cc2)[C@H]67)[C@@H]1O", 0.99),
]

We now examine a further compound.
Find the measured relative cell growth of "C=C1[C@@H](OC(C)=O)[C@]23C[C@@H]1[C@@H](OC(C)=O)C[C@H]2[C@@]12C4C3C[C@@H]1[C@@](C)(CC[C@H]2OC(C)=O)CN4CC" and report it.
1.02

Reference source: ChEMBL document CHEMBL1141436
